// provenance: ChEMBL document CHEMBL1122402

Organism: Mus musculus
Assay: Hypoglycemic activity in alloxan-diabetic female albino mice expressed as percentage reduction of plasma glucose levels
Format: functional
Design: concentration or dose not given beside the values
// assign y if Reduction falls strictly below 2%, else n (ties count as n)

Here's an entry: `CCCNC(=O)NS(=O)(=O)c1ccc(NC(=O)n2nc(C)c(Br)c2C)cc1` . Is its Reduction below 2%? y

Record `Cc1cc(C)n(C(=O)c2ccccc2O)n1` : is its Reduction strictly below 2%? y

Determine if `Cc1cc(C)n(C(=O)c2ccc(NC(=O)Nc3ccccc3)cc2)n1` shows Reduction strictly lower than 2%. n

====

Species on record: Mus musculus
Assay: Hypoglycemic activity in alloxan-diabetic female albino mice expressed as percentage reduction of plasma glucose levels
Assay type: functional
Parameters: concentration or dose not given beside the values
Recorded Reduction determines the group label, using group 1: < 2%; group 2: ≥ 2% and < 4%; group 3: ≥ 4%

Before answering, review these 2 worked examples.
CCCNC(=O)NNC(=O)Cn1nc(C)cc1C; group 1
CCNC(=O)NS(=O)(=O)c1ccc(C(=O)n2nc(C)c(Br)c2C)cc1; group 1

Hi, small favor: classify `CCNC(=O)NS(=O)(=O)c1ccc(-n2nc(C)c(Br)c2C)cc1` by its Reduction when you get a moment. group 1

Category lookup for the compound `Cc1cc(C)n(C(=O)c2ccncc2)n1` group 1

====

Species on record: Mus musculus
Test: Hypoglycemic activity in alloxan-diabetic female albino mice expressed as percentage reduction of plasma glucose levels
Format: functional
Parameters: concentration or dose not given beside the values
// values below are reported Reduction
Supply the numeric figure in %, leaving out any unit text.

CCCCNC(=O)NS(=O)(=O)c1ccc(C(=O)n2nc(C)cc2C)cc1; 2
Cc1nn(C(=O)c2ccc(S(=O)(=O)NC(=O)NCc3ccccc3)cc2)c(C)c1Br; 2
CCCNC(=O)NS(=O)(=O)c1ccc(-n2nc(C)c(Br)c2C)cc1; 2
CCCCNC(=O)NS(=O)(=O)c1ccc(NC(=O)n2nc(C)cc2C)cc1; 7.5
Cc1nn(C(=O)c2ccc(S(=O)(=O)NC(=O)NC3CCCCC3)cc2)c(C)c1Br; 1

Now let's try a different one.
Entry under review: `Cc1cc(C)n(CC(=O)NNC(=O)NC2CCCCC2)n1` . Reported Reduction? 2.5

====

Species: Mus musculus
Assay: Hypoglycemic activity in alloxan-diabetic female albino mice expressed as percentage reduction of plasma glucose levels
Assay type: functional
Set-up: concentration or dose not given beside the values
ASSAY_READOUT: Reduction (%)
Respond with the bare value in %.

Some solved entries appear below for comparison.
Cc1cc(C)n(C(=O)Nc2ccc(S(=O)(=O)NC(=O)NC3CCCCC3)cc2)n1; 9
Cc1cc(C)n(C(=O)n2nc(C)cc2C)n1; 2.5
Cc1cc(C)n(C(=O)c2ccc(NC(=O)NC3CCCCC3)cc2)n1; 20
CCCCNC(=O)Nc1ccc(C(=O)n2nc(C)cc2C)cc1; 15

Recorded Reduction for `CCCNC(=O)Nc1ccc(C(=O)n2nc(C)cc2C)cc1` , please? 8

What value of Reduction has been recorded for this entry: `CCCCNC(=O)NS(=O)(=O)c1ccc(-n2nc(C)c(Br)c2C)cc1` 3

Would you kindly share the measured Reduction for `CCNC(=O)NS(=O)(=O)c1ccc(NC(=O)n2nc(C)cc2C)cc1` ? 4

Look up Reduction for this compound: `Cc1nn(-c2ccc(S(=O)(=O)NC(=O)NC3CCCCC3)cc2)c(C)c1Br` 2.5

Given `Cc1nn(C(=O)Nc2ccc(S(=O)(=O)NC(=O)NC3CCCCC3)cc2)c(C)c1Br` , state its recorded Reduction. 4

I am curious: what Reduction value has been reported for `Cc1cc(C)n(C(=O)c2ccc(S(=O)(=O)NC(=O)Nc3ccccc3)cc2)n1` ? 2

Returns the measured Reduction for the input compound. Input: `CCCCNC(=O)NNC(=O)Cn1nc(C)cc1C` 2

Reduction lookup needed for `CCCCNC(=O)Nc1ccc(C(=O)n2nc(C)c(Br)c2C)cc1` , thanks. 6

Look up Reduction: `CCCNC(=O)Nc1ccc(C(=O)n2nc(C)c(Br)c2C)cc1` 5

Fill in: Reduction of `Cc1cc(C)n(C(=O)Nc2ccc(S(=O)(=O)NC(=O)NCc3ccccc3)cc2)n1` is ___ 1

Could you share which Reduction value was measured for `Cc1nn(C(=O)c2ccc(S(=O)(=O)NC(=O)Nc3ccccc3)cc2)c(C)c1Br` ? 3

====

Organism: Mus musculus
Assay: Hypoglycemic activity in alloxan-diabetic female albino mice expressed as percentage reduction of plasma glucose levels
Type: functional
Parameters: concentration or dose not given beside the values
ASSAY_READOUT: Reduction

Cc1nn(C(=O)c2ccc(NC(=O)Nc3ccccc3)cc2)c(C)c1Br; <1%
Cc1cc(C)n(C(=O)c2ccc(S(=O)(=O)NC(=O)NC3CCCCC3)cc2)n1; <1%
Cc1cc(C)n(C(=O)c2ccc(S(=O)(=O)NC(=O)NCc3ccccc3)cc2)n1; <1%
Cc1cc(C)n(CC(=O)NNC(=O)NCc2ccccc2)n1; <1%
Cc1nn(-c2ccc(S(=O)(=O)NC(=O)Nc3ccccc3)cc2)c(C)c1Br; <1%
CCNC(=O)NS(=O)(=O)c1ccc(C(=O)n2nc(C)cc2C)cc1; <1%

Quick one: Reduction of `Cc1cc(C)n(C(=O)c2cccnc2)n1` ? <1%

Look up Reduction for this compound: `CCCNC(=O)NS(=O)(=O)c1ccc(C(=O)n2nc(C)cc2C)cc1` <1%

====

Species on record: Mus musculus
Assay: Hypoglycemic activity in alloxan-diabetic female albino mice expressed as percentage reduction of plasma glucose levels
Assay type: functional
Parameters: concentration or dose not given beside the values
ASSAY_READOUT: Reduction (%)
Response body: numeric value in %, unit text excluded.

Solved entries:
Cc1nn(C(=O)c2ccc(NC(=O)NC3CCCCC3)cc2)c(C)c1Br; 2.5
Cc1cc(C)n(CC(=O)n2nc(C)cc2C)n1; 2.5
Cc1cc(C)n(C(=O)Nc2ccc(S(=O)(=O)NC(=O)Nc3ccccc3)cc2)n1; 2
CCCCNC(=O)NS(=O)(=O)c1ccc(NC(=O)n2nc(C)c(Br)c2C)cc1; 2
CCNC(=O)NNC(=O)Cn1nc(C)cc1C; 1

--- query ---
Fill blank: measured Reduction of the compound `CCCNC(=O)NS(=O)(=O)c1ccc(NC(=O)n2nc(C)cc2C)cc1` is ____. 6
